# credit: paper PMC11513893

Sequence of the target: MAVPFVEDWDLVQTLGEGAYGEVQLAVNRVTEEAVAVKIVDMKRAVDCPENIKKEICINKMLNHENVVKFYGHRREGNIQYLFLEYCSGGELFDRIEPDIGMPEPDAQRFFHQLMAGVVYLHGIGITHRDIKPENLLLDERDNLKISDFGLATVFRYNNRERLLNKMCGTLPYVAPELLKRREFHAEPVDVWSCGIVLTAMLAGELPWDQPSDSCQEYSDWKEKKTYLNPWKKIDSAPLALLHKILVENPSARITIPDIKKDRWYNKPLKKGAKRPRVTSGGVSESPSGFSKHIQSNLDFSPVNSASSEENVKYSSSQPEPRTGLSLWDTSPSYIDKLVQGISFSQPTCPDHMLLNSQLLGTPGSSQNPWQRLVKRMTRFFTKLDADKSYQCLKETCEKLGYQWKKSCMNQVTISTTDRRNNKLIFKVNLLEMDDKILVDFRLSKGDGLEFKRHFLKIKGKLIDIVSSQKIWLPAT
measurementKind: pIC50
Reminder that pIC50 is minus the log10 of a molar concentration.

Input: # pIC50 lookup, item COc1cc(N2CCC(N3CCN(CC4CCN(c5ccc6c(c5)CN(C5CCC(=O)NC5=O)C6=O)CC4)CC3)CC2)ccc1Nc1ncc(Cl)c(Nc2ccccc2P(C)(C)=O)n1 (stereo not shown) [9o]
Output: 7.40
